experiment: Degradation of BK by intact adherent HUVECs (Phoenix Pharmaceuticals BK EIA); conditions: human, pH 7.4
Ends that are not written are not given here.

sequence.input | half-life at 10 nM / min
RPPGFSPFR [BK, bradykinin] | 12.3

Just for reference, paper PMC7559923 is where these values come from.
